B1: Azoarcus group I ribozyme (parent)
chain: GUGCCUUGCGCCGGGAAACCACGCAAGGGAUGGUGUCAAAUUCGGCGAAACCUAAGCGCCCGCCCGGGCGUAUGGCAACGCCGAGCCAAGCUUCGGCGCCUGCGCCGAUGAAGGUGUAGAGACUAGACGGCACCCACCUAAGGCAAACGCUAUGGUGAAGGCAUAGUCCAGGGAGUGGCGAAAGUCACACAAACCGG

Variants of: B1
Experiment: reverse-splicing fitness (ratio to wild type); higher = more active; in vitro selection; Mg2+ level not given
Classify by measured reverse-splicing fitness: Condition met if it is equal to or exceeds 0.01, Condition not met if it is smaller.

# Mutant label, Class
records = [
    ("C82U A111C A120C C150A U176A", "Condition met"),
    ("C82A A111G A120U A145G C150G C169A", "Condition not met"),
    ("A111G A120G A145U C150G C169U U176C", "Condition met"),
    ("A111G A120C A145G C150U C169G U176C", "Condition met"),
    ("C82U A120C A145U C150G U176G", "Condition not met"),
    ("A111U A120G C150A U176A", "Condition met"),
    ("C82A A111C A120U A145G C169G U176C", "Condition not met"),
    ("A111C A145C C150U C169U", "Condition met"),
    ("C82G A111G A145C C150A C169U U176C", "Condition not met"),
    ("C82G A111G A120G C150G", "Condition not met"),
    ("C82A A111G A120U A145G C169U U176A", "Condition not met"),
    ("C82G C169A U176A", "Condition met"),
    ("A111U A120C A145C C169G U176G", "Condition not met"),
    ("C82U A111C A120C A145C C150U C169U U176G", "Condition not met"),
    ("C82U A111C A120G A145G C150U U176C", "Condition met"),
    ("C82G A111G A120C A145U C150U C169U U176A", "Condition met"),
    ("A111U A145C C150G C169G", "Condition met"),
    ("A111U A120U A145G C150G C169G U176G", "Condition not met"),
    ("A111G A145G C150G C169U U176G", "Condition not met"),
    ("C82U A120U C150G C169U", "Condition not met"),
    ("A120U A145G C150A U176C", "Condition met"),
    ("A111U A120C A145C C169U U176A", "Condition met"),
]
